target: pseudo-kinase domain (JH2) of human Wild Type JAK2 (Homo sapiens, UniProt O60674, F794H/W659A/W777A); construct: pseudo-kinase domain (JH2, amino-acids 536-812 with 3 surface mutations W659A, W777A, F794H); His (C); experiment: JAK2 LanthaScreen JH2-WT Binding Assay; conditions: 50 nM Fluorescent JAK2-JH2 Tracer, 1 hour at 25° C.
Sequence (O60674 536-812 W659A/W777A/F794H): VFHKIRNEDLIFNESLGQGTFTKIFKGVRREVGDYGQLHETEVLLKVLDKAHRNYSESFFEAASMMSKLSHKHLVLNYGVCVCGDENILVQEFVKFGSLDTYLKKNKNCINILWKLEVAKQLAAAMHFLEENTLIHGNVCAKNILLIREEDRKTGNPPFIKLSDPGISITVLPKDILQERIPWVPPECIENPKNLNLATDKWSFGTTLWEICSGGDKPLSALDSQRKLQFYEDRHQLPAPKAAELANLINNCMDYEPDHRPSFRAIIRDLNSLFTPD
RESULT TYPE: IC50

Cc1cccc(-c2c(-c3cccc(C(=O)N(C)C)c3)[nH]c3nc(N)[nH]c(=O)c23)c1    1000 to 2500 nM
COc1ccc(C)cc1-c1c(-c2ccc(S(=O)(=O)N(C)C)cc2)[nH]c2nc(N)[nH]c(=O)c12    100 to 500 nM
COc1nn(Cc2ccc(C(=O)O)cc2)cc1-c1c(-c2ccc(S(=O)(=O)N(C)C)cc2)[nH]c2nc(N)[nH]c(=O)c12    ≤ 100 nM

Field: next compound
[in] Note down IC50 recorded for CNC(=O)c1ccc(-c2c(-c3ccc(S(=O)(=O)N(C)C)cc3)[nH]c3nc(N)[nH]c(=O)c23)cc1
[out] 100 to 500 nM

Every entry's value here was drawn from patent US11919908B2.
